Reference for the values: patent US20240417411A1

# test: in vitro
# measurementContext: human, plasma
Measured half-life at 2 μM, listed per entry for reference.
Give just the numeric value; h need not be written.

Use the examples below as a reference point.
CCOC(=O)[C@@H]1[C@H](OC(=O)OC[C@H]2O[C@@](C#N)(c3ccc4c(N)ncnn34)[C@@H]3OC(=O)CC(C)(C)CC(=O)O[C@@H]32)CCN1C : 0.709
CC(C)OC(=O)OC[C@H]1O[C@@](C#N)(c2ccc3c(N)ncnn23)[C@@H]2OC(=O)OCCCCCCOC(=O)O[C@@H]21 : 5.28

[ask] May I ask what half-life at 2 μM has been recorded for CC(C)COC(=O)OC[C@H]1O[C@@](C#N)(c2ccc3c(N)ncnn23)[C@@H]2OC(=O)CC(C)(C)CC(=O)O[C@@H]21 ?
[reply] 1.23
